- Test system: RAW-Dual
- protocol: NF-kB SEAP reporter activity, fold change vs agonist alone; higher = enhanced NF-kB activity
- applied-conditions: library stock concentration (final ~1000-fold dilution): 10 mM water; cytotoxicity flag (confluency mask): not cytotoxic; agonist: MPLA (TLR4) […]
In all, about 2,900 compounds were measured (“NF-kB SEAP reporter activity, fold change vs agonist alone”: median about 0.99, highest 2% from about 2.6 on). This excerpt belongs to a sample that is enriched for the highest values.
The label depends only on NF-kB SEAP reporter activity: T if it is at least 1, F if it is smaller.

Solved entries:
Cl.Cl.c1cc(-c2cnn3cc(-c4ccc(OCCN5CCCCC5)cc4)cnc23)ccn1; T
CSCCNc1nc(SCCC(F)(F)F)nc2c1ncn2C1OC(COP(=O)(O)OP(=O)(O)C(Cl)(Cl)P(=O)(O)O)C(O)C1O (centres undefined); T

IN: API: above_or_equal(metric=NF-kB SEAP reporter activity, cutoff=1) for item CCC(C)CC(C)CCCCCCCCC(=O)NC1CC(O)C(NCCN)NC(=O)C2C(O)CCN2C(=O)C(C(O)CCN)NC(=O)C(C(O)C(O)c2ccc(O)cc2)NC(=O)C2CC(O)CN2C(=O)C(C(C)O)NC1=O (centres undefined)
OUT: F

IN: NF-kB SEAP reporter activity >= 1 for O=C(O)[C@H](O)Cc1ccc(O)c(O)c1 ?
OUT: T

IN: Assess whether reported NF-kB SEAP reporter activity for C=C1c2cccc(O)c2C(=O)C2=C(O)C3(O)C(=O)C(C(N)=O)=C(O)C(N(C)C)C3C(O)C12.Cl (centres undefined) sits at 1 or higher.
OUT: T

IN: Entry N=C(N)NCCN1CCCCCCC1.O=S(=O)(O)O : is its NF-kB SEAP reporter activity no less than 1?
OUT: T

IN: Is the recorded value of NF-kB SEAP reporter activity equal to or greater than 1 for this molecule? CC(=O)NC1C(NC(=N)N)C=C(C(=O)O)OC1C(O)C(O)CO (centres undefined)
OUT: T

IN: Quick check, NF-kB SEAP reporter activity >= 1? COc1cc2c(cc1OC)C(=O)C(CC1CCN(Cc3ccccc3)CC1)C2.Cl (centres undefined)
OUT: T

###

- System: RAW-Dual
- protocol: NF-kB SEAP reporter activity, fold change vs agonist alone; cytotoxicity flag (confluency mask): cytotoxic (confluency <70% of control); higher = enhanced NF-kB activity
- applied-conditions: agonist: Pam2CSK4 (TLR2/6) 0.1 ug/mL
Whole data set: some 2,900 compounds, median “NF-kB SEAP reporter activity, fold change vs agonist alone” near 0.99, cut for the highest 2% near 2.6. Only a selection was taken, and the highest values are over-represented in it overall.
Decide by NF-kB SEAP reporter activity: equal to or exceeding 0.5 means Yes, less means No.

Solved entries:
C1=CCOCc2cc(ccc2OCCN2CCCC2)Nc2nccc(n2)-c2cccc(c2)COC1 (library stock concentration (final ~1000-fold dilution): 10 mM); No
CCNC(=O)c1cc2c(-c3cc(C(C)(C)O)ccc3Oc3c(C)cc(F)cc3C)cn(C)c(=O)c2[nH]1 (library stock concentration (final ~1000-fold dilution): 10 mM); No
Cc1cc2c(C(N)=O)cccc2n1-c1nc2c(c(NCc3ccccc3)n1)COCC2 (library stock concentration (final ~1000-fold dilution): 10 mM); No
CN1CCN(Cc2ccc(NC(=O)Nc3ccc(Oc4ccnc(N)n4)cc3)cc2C(F)(F)F)CC1 (library stock concentration (final ~1000-fold dilution): 10 mM); No
COc1ccc2cc1Oc1ccc(cc1)CC1c3cc(c(OC)cc3CCN1C)Oc1c(O)c(OC)cc3c1C(C2)N(C)CC3 (configuration not stated) (library stock concentration (final ~1000-fold dilution): 10 mM); Yes
CN1CCN(C2CCN(C(=O)Nc3cc(Oc4ccc(NC(=O)C5(C(=O)Nc6ccc(F)cc6)CC5)c(F)c4)ccn3)CC2)CC1 (library stock concentration (final ~1000-fold dilution): 10 mM); Yes
COc1ccc2[nH]cc(C=C3C(=O)Nc4ccc(NC(=O)CCN5CCCCC5)cc43)c2c1 (library stock concentration (final ~1000-fold dilution): 10 mM); Yes
CCS(=O)(=O)Nc1ccc2c(c1)/C(=C(/Nc1ccc(CN3CCCCC3)cc1)c1ccccc1)C(=O)N2 (library stock concentration (final ~1000-fold dilution): 10 mM); No

IN: Can CNC1CCC(c2ccc(Cl)c(Cl)c2)c2ccccc21.Cl (configuration not stated) (library stock concentration (final ~1000-fold dilution): 10 mM) be said to have NF-kB SEAP reporter activity at or above 0.5?
OUT: No

IN: Reported NF-kB SEAP reporter activity at or above 0.5? C=C(C)C1CCC2(C(=O)O)CCC3(C)C(CCC4C5(C)CCC(OC(=O)CC(C)(C)C(=O)O)C(C)(C)C5CCC43C)C12 (configuration not stated) (library stock concentration (final ~1000-fold dilution): 10 mM)
OUT: No

###

- Test system: RAW-Dual
- protocol: NF-kB SEAP reporter activity, fold change vs agonist alone; higher = enhanced NF-kB activity
- applied-conditions: library stock concentration (final ~1000-fold dilution): 10 mM; cytotoxicity flag (confluency mask): not cytotoxic; agonist: Imiquimod (TLR7) […]
In all, about 2,900 compounds were measured (“NF-kB SEAP reporter activity, fold change vs agonist alone”: median about 0.99, highest 2% from about 2.6 on). What follows is part of a selection rich in the highest values, with near analogues and random picks from the rest.
quantity-measured: NF-kB SEAP reporter activity
Please state the value as a number alone, without comment.

CCCNC(=O)C1OC1C(=O)NC(C(=O)N1CCCC1C(=O)OC)C(C)CC (configuration not stated); 0.821

Considering COc1nc2ccc(Br)cc2cc1C(c1ccccc1)C(O)(CCN(C)C)c1cccc2ccccc12 (configuration not stated) , its NF-kB SEAP reporter activity with RAW-Dual was recorded as 0.771

Recorded NF-kB SEAP reporter activity for O=C(NCCO)c1cccc(-c2cc(Nc3ccc(OC(F)(F)F)cc3)ncn2)c1 on RAW-Dual was 1.09

###

- Test system: RAW-Dual
- protocol: NF-kB SEAP reporter activity, fold change vs agonist alone; higher = enhanced NF-kB activity
- applied-conditions: library stock concentration (final ~1000-fold dilution): 10 mM; cytotoxicity flag (confluency mask): not cytotoxic; agonist: MPLA (TLR4) […]
Whole data set: some 2,900 compounds, median “NF-kB SEAP reporter activity, fold change vs agonist alone” near 0.99, cut for the highest 2% near 2.6. The full list was thinned out, with the highest values kept by preference.
quantity-measured: NF-kB SEAP reporter activity
Keep it simple and answer with nothing but the number.

CC(C)=CCCC(C)(OC1OC(CO)C(O)C(O)C1O)C1CCC2(C)C1C(O)CC1C3(C)CCC(OC4OC(CO)C(O)C(O)C4OC4OC(CO)C(O)C(O)C4O)C(C)(C)C3CCC12C (stereo not given); 1.02
C[C@@H]1O[C@@H](O[C@H]2[C@H](OC(=O)[C@]34CCC(C)(C)C[C@H]3C3=CC[C@@H]5[C@@]6(C)C[C@H](O)[C@H](O[C@@H]7O[C@H](CO)[C@@H](O)[C@H](O)[C@H]7O)[C@@](C)(CO)[C@@H]6CC[C@@]5(C)[C@]3(C)CC4)O[C@H](CO)[C@@H](O)[C@@H]2O)[C@H](O)[C@H](O)[C@H]1O[C@@H]1OC[C@@H](O)[C@H](O)[C@H]1O; 1.01
CC1(F)C(O)C(CO)OC1n1ccc(=O)[nH]c1=O (stereo not given); 1.02
Cc1cc(Nc2nc(NC(C)c3ccc(F)cc3)c(C#N)cc2F)n[nH]1 (stereo not given); 0.984

Attention now shifts to the item below.
So, O=C(O)CN(CC(=O)O)c1ccccc1OCCOc1ccccc1N(CC(=O)O)CC(=O)O ? Its NF-kB SEAP reporter activity was 1.01

###

- System: RAW-Dual
- protocol: NF-kB SEAP reporter activity, fold change vs agonist alone; higher = enhanced NF-kB activity
- applied-conditions: library stock concentration (final ~1000-fold dilution): 10 mM; cytotoxicity flag (confluency mask): not cytotoxic; agonist: Imiquimod (TLR7) […]
The full ranking holds about 2,900 compounds; the median of “NF-kB SEAP reporter activity, fold change vs agonist alone” is about 0.99, and the highest 2% start at about 2.6. Many of the other results were omitted from the sample, so the highest values are more common in it than they were.
NF-kB SEAP reporter activity by entry:
Give a plain numeric answer without units written out.

CN1CCc2c(c3ccccc3n2Cc2ccc(C(=O)NO)cc2)C1; 1
COc1ccc2cccc(CCNC(C)=O)c2c1; 0.972

Noted NF-kB SEAP reporter activity for COc1c(O)c(C)cc2c1C(=O)c1c(O)cccc1C2=O , tested on RAW-Dual: 0.981

###

- Test system: RAW-Dual
- protocol: NF-kB SEAP reporter activity, fold change vs agonist alone; higher = enhanced NF-kB activity
- applied-conditions: library stock concentration (final ~1000-fold dilution): 10 mM; cytotoxicity flag (confluency mask): not cytotoxic; agonist: MPLA (TLR4) […]
The full ranking holds about 2,900 compounds; the median of “NF-kB SEAP reporter activity, fold change vs agonist alone” is about 0.99, and the highest 2% start at about 2.6. The entries come from a sample that favours the highest values as a whole.
Assign class by NF-kB SEAP reporter activity: not lower than 1 means y; lower than 1 means n.

Previously resolved entries follow.
COCC(NC(=O)c1cnc(C)s1)C(=O)NC(COC)C(=O)NC(Cc1ccccc1)C(=O)C1(C)CO1 (configuration not stated); y
Cc1nc(-c2cn3c(n2)-c2ccc(-c4cnn(C(C)(C)C(N)=O)c4)cc2OCC3)n(C(C)C)n1; y
Cl.Cn1cc(C(=O)Nc2ccc3c(c2)OCCO3)c2ccccc2c1=O; y
CCCS(=O)(=O)NC1CC(N(C)c2ncnc3[nH]ccc23)C1 (configuration not stated); n
CC#CC(=O)N1CCCC1c1nc(-c2ccc(C(=O)Nc3ccccn3)cc2)c2c(N)nccn12 (configuration not stated); n
CCC1(O)CC2CN(CCc3c([nH]c4ccccc34)C(C(=O)OC)(c3cc4c(cc3OC)N(C=O)C3C(O)(C(=O)OC)C(OC(C)=O)C5(CC)C=CCN6CCC43C65)C2)C1.O=S(=O)(O)O (configuration not stated); y

IN: Is the recorded value of NF-kB SEAP reporter activity equal to or greater than 1 for this compound? NCC(O)(c1ccc(Cl)cc1)c1ccc(-c2cn[nH]c2)cc1 (configuration not stated)
OUT: n

IN: Is the recorded value of NF-kB SEAP reporter activity equal to or greater than 1 for this compound? Nc1ccc(C(=O)Nc2cccc(-c3nc(N4CCOCC4)c4oc5ncccc5c4n3)c2)cn1
OUT: y

IN: Please indicate if the recorded NF-kB SEAP reporter activity for N#Cc1cccc(-c2c[nH]c3ncnc(N4CCOCC4)c23)c1 meets or exceeds 1.
OUT: n

IN: Reported NF-kB SEAP reporter activity reaches at least 1 for O=c1cc(-c2ccc(O)cc2)oc2c(C3OCC(O)C(O)C3O)c(O)c(C3OC(CO)C(O)C(O)C3O)c(O)c12 (configuration not stated) ?
OUT: y

Where do these numbers come from? They come from the supplement of paper PMC10037445.
